EXPERIMENT: chemical genetic growth profiling, strain panel (AID 1159580);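 also: tested at 20 µM; growth read once vehicle control cultures reached saturation at 30 °C; 1 = growth at the plate median or of vehicle wells; lower values mean less growth of the strain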
MEASUREMENT PARAMETERS: S. cerevisiae deletion strains, growth OD, locus YGL086W, strain mad1
The campaign covered roughly 5,500 compounds. About 2,000 (36%) were called active. About 18% were inconclusive and are not listed. Rule as the data show it: active = normalized growth mostly below about 0.91 (no sharp cut-off); inconclusive = no clear call, values can overlap the other calls; inactive = mostly above about 0.92. This is one part of the list.
Would you mind answering with one of these outcomes? yes = active, no = inactive

Given COc1cc([C@@H]2c3cc4c(cc3C(O[C@@H]3O[C@@H]5CO[C@@H](c6cccs6)OC5[C@H](O)[C@H]3O)C3COC(=O)[C@@H]32)OCO4)cc(OC)c1O (some centres not stated) , state the outcome it received in this test.
no

Given `CN(C)CCC=C1c2ccccc2CCc2ccccc21` , state the outcome it received in this test.
no

Given `NS(=O)(=O)c1cc2c(cc1C(F)(F)F)NCNS2(=O)=O` , state the outcome it received in this test.
no

Given `CC(=O)Nc1ccc(O)cc1` , state the outcome it received in this test.
no

Given `COc1cc([C@@H]2c3cc4c(cc3[C@H](O)[C@H]3COC(=O)[C@@H]23)OCO4)cc(OC)c1OC` , state the outcome it received in this test.
no

Given `O=C1CC[C@]23C=CC(=O)NCCCCNCCCNC(=O)/C=C/c4ccc(c2c4)O[C@@H]3C1` , state the outcome it received in this test.
no

* * *

So I've got a bunch of molecules here, and I need their normalized growth values.
EXPERIMENT: chemical genetic growth profiling, strain panel (AID 1159580)
MEASUREMENT PARAMETERS: S. cerevisiae deletion strains, growth OD, locus YJL154C, strain vps35, hits give low values
About 2,000 (36%) of roughly 5,500 compounds were called active. Roughly 18% stayed inconclusive and do not appear here. The list shows a part of the results.
Give bare numbers.

Sample answers from the record:
MOLECULE | normalized growth
O=C1CCc2cc(OCCCCc3nnnn3C3CCCCC3)ccc2N1 | 0.993
Cc1cc2cc3c(C)cc(=O)oc3c(C)c2o1 | 0.99
CC1(C)O[C@@H]2CC3C4C[C@H](F)C5=CC(=O)C=CC5(C)C4C(O)CC3(C)[C@]2(C(=O)CO)O1 (stereo partly drawn) | 0.976

# batch: return normalized growth for each of the 2 molecules below
1. CCN(CC)CCNc1ccc(CO)c2sc3ccccc3c(=O)c12
2. COc1ccc(-c2cc(=O)c3c(OC)c(OC)c(OC)c(OC)c3o2)cc1

[1.01, 0.996]

# batch: return normalized growth for each of the 3 molecules below
1. CN(N=O)C(=O)N[C@@H]1[C@@H](O)[C@H](O)[C@@H](CO)O[C@@H]1O
2. COc1ccc(-c2cc(=O)c3c(O)c(OC)c(OC)c(OC)c3o2)cc1
3. O=c1[nH]c2cc(Cl)c(Cl)cc2[nH]c1=O

0.998
0.988
0.999

* * *

So I've got a bunch of compounds here, and I need their normalized growth values.
EXPERIMENT: chemical genetic growth profiling, strain panel (AID 1159580);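 also: tested at 20 µM; growth read once vehicle control cultures reached saturation at 30 °C; 1 = growth at the plate median or of vehicle wells; lower values mean less growth of the strain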
MEASUREMENT PARAMETERS: S. cerevisiae deletion strains, growth OD, locus YKL190W, strain CNB1, hits give low values
Hit rate of the full screen: of about 5,500 compounds, about 2,000 (36%) were called active. Roughly 18% stayed inconclusive and do not appear here. The list shows a part of the results.
Give bare numbers.

Sample answers from the record:
COMPOUND | normalized growth
CC1=C2C(=CO[C@H](C)[C@H]2C)C(=O)C(C(=O)O)=C1O | 0.979
O=C1CCc2cc(OCCCCc3nnnn3C3CCCCC3)ccc2N1 | 1.01
CCCCCn1c(Sc2ncc([N+](=O)[O-])s2)n[nH]c1=O | 0.0782
CC1=NCCc2c1[nH]c1cc(O)ccc21 | 0.999
CN1CCN2c3ccccc3Cc3ccccc3C2C1 (stereo unspecified) | 1.02
O=c1c(-c2cc(O)c(O)c(O)c2)coc2cc(O)c(O)c(O)c12 | 0.86

# batch: return normalized growth for each of the 8 compounds below
1. COC(=O)C[C@H]1C(C)(C)C(=O)[C@@H]2CC3=C4CC(OC)O[C@@H](c5ccoc5)[C@]4(C)CCC3[C@@]1(C)C2=O (stereo partly specified)
2. CN1CCc2c(c3ccccc3n2Cc2ccccc2)C1
3. O=C1CCCc2c1nc(-c1ccccc1)n2O
4. CC1NC(=O)NC1=O (stereo unspecified)
5. c1ccc(Sc2c(-c3ccccc3)nc3ccccn23)cc1
6. CC(=O)N(O)CCCCCNC(=O)CCC(=O)N(O)CCCCCNC(=O)CCC(=O)N(O)CCCCCN
7. CSc1ccc(C(=O)O)s1
8. C=CCc1ccccc1OCC(O)CNC(C)C (stereo unspecified)

1.01
0.996
1
1
0.79
1.01
1.01
1

# batch: return normalized growth for each of the 3 compounds below
1. CC(=O)Oc1cc(-c2coc3cc(OC(C)=O)c(OC(C)=O)c(OC(C)=O)c3c2=O)cc(OC(C)=O)c1OC(C)=O
2. CC(=O)Oc1cc(OC(C)=O)c2c(=O)c(-c3ccccc3)coc2c1
3. COc1ccc2cc3[n+](cc2c1OC)CCc1cc2c(cc1-3)OCO2

1. 0.888
2. 1.03
3. 0.293

# batch: return normalized growth for each of the 5 compounds below
1. FC(F)(F)c1ccc(-c2nc(-c3ccc4c(c3)OCCCO4)cs2)cc1
2. OC1C(O)C(O)C(O)C(O)C1O (stereo unspecified)
3. COc1ccc(-c2cc(=O)c3ccccc3o2)cc1OC
4. Clc1ccc(Cl)cc1
5. O=c1[nH]c2cc(Cl)c(Cl)cc2[nH]c1=O

1. 1.01
2. 0.99
3. 1.03
4. 1.02
5. 1.01

# batch: return normalized growth for each of the 5 compounds below
1. O=c1c2ccccc2[se]n1-c1ccccc1
2. CC1(C)O[C@@H]2CC3C4C[C@H](F)C5=CC(=O)C=CC5(C)C4C(O)CC3(C)[C@]2(C(=O)CO)O1 (stereo partly specified)
3. C=C1C2CC[C@@]3(C)[C@H](c4ccoc4)OC(=O)C[C@]13O[C@H]1CC(=O)C(C)(C)[C@H](C(O)C(=O)OC)[C@@]21C (stereo partly specified)
4. CC(=O)O[C@@H]1CC2C(C)(C)C(=O)CC[C@]2(C)C2CC[C@@]3(C)[C@H](c4ccoc4)OC(=O)C4OC43[C@@]21C (stereo partly specified)
5. COc1cccc(-c2cc(=O)c3ccc(OC)cc3o2)c1

1. 0.0495
2. 1.01
3. 1
4. 1
5. 0.952

* * *

EXPERIMENT: chemical genetic growth profiling, strain panel (AID 1159580);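 also: tested at 20 µM; growth read once vehicle control cultures reached saturation at 30 °C; 1 = growth at the plate median or of vehicle wells; lower values mean less growth of the strain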
MEASUREMENT PARAMETERS: S. cerevisiae deletion strains, growth OD, locus YMR219W, strain ESC1, hits give low values
Among all 5,500 compounds or so, about 2,000 (36%) were called active. Not shown: some 18% with an inconclusive outcome. The list shows a part of the results.
READOUT NAME: normalized growth
Answers are plain numbers.

COMPOUND | normalized growth
Clc1cccc(-c2csc(Nc3cccnc3)n2)c1 | 0.992
CCN1CN=C(SCc2ccc(C)cc2)NC1 | 0.994
Clc1ccc(-c2csc(-c3ccno3)n2)s1 | 0.937

# batch: return normalized growth for each of the 3 compounds below
1. COC(=O)C1=C(Nc2ccc(Cl)cc2)CSC1
2. O=C1CCCc2c1nc(-c1ccccc1)n2O
3. O=C1NC(c2ccccc2Cl)Nc2ccccc21 (stereo not drawn)

1. 0.972
2. 1.01
3. 1

# batch: return normalized growth for each of the 2 compounds below
1. O=C(N/N=C\c1ccccc1Cl)c1cccnc1
2. CC(=O)C1COc2ccc(C)cc2C1=O (stereo not drawn)

1: 1; 2: 0.928

* * *

EXPERIMENT: chemical genetic growth profiling, strain panel (AID 1159580);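 also: tested at 20 µM; growth read once vehicle control cultures reached saturation at 30 °C; 1 = growth at the plate median or of vehicle wells; lower values mean less growth of the strain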
MEASUREMENT PARAMETERS: S. cerevisiae deletion strains, growth OD, locus YNL067W, strain RPL9B, hits give low values
The whole screen tested about 5,500 compounds, of which about 2,000 (36%) were called active. Another 18% or so got no clear call; they are omitted. This is one part of the list.
READOUT NAME: normalized growth
Numbers only.

Sample answers from the record:
COMPOUND | normalized growth
CC1(C)O[C@@H]2CC3C4CCC5=CC(=O)C=C[C@]5(C)[C@@]4(F)[C@@H](O)C[C@]3(C)[C@]2(C(=O)CO)O1 (some centres undefined) | 1.02
O=C1c2c(O)ccc(O)c2C(=O)c2c(NCCNCCO)ccc(NCCNCCO)c21 | 0.976

# batch: return normalized growth for each of the 2 compounds below
1. COc1cc([C@@H]2c3cc4c(cc3C(O[C@@H]3O[C@@H]5CO[C@@H](c6cccs6)OC5[C@H](O)[C@H]3O)C3COC(=O)[C@@H]32)OCO4)cc(OC)c1O (some centres undefined)
2. CCCN1C[C@H](CSC)C[C@@H]2c3cccc4[nH]cc(c34)C[C@H]21

1: 0.998; 2: 0.975

FYI, the data here is from PubChem BioAssay AID1159580.
